# credit: patent EP0510719A1

- assay_method_text: Chemical stability in aqueous buffer solution at different pH, followed kinetically
- Type: physicochemical
- conditions_used: pH 9.5; 37°C; aqueous buffer solution, low concentration; read-out: t 1/2 (hours) pH 9.5
measure: half-life

1. COc1ccc2nc([S+]([O-])Cc3ncc(C)c(OC)c3C)n(COP(=O)(O)O)c2c1 (stereo not shown) [Example 29]	> 600 h
